system: CP192; test: qHTS profiling for inhibitors of Plasmodium falciparum proliferation (AID 504749); further: nearly all actives have a fitted effect of over 60% in size; details: P. falciparum in erythrocytes, SYBR Green DNA, 72 h; series mostly up to 12.8 µM
Records with an inconclusive call do not appear. Active and inactive are the calls of the source. The call rests on the fitted dose curve; in most records, active means well fitted inhibition curve with a large enough effect; inconclusive means small, poorly fitted or top-dose-only effect; inactive means flat fitted curve, though single readings scatter.
Write down one outcome, taken from active, inactive

Consider the worked cases shown below.
| molecule | subject_of_test | discrete_label |
| --- | --- | --- |
| CC(=O)N[C@H](CC(C)C)C(=O)O | CP192 | inactive |
| C[C@H]1CC[C@]2(OC1)O[C@@H]1C[C@@H]3[C@@H]4CC[C@H]5C[C@@H](O)CC[C@]5(C)[C@@H]4CC(=O)[C@@]3(C)[C@H]1[C@@H]2C | CP192 | inactive |
| OCC1O[C@H](OC2C(CO)O[C@@](O)(CO)C2O)C(O)C(O)C1O (stereo not given in full) | CP192 | inactive |

Query block: Entry CC(C)(C)NC[C@H](O)COc1cccc2c1CCC(=O)N2 : call = ?
Result block: inactive

Query block: Please share the test call associated with CC(C)NC[C@H]1CCc2cc(CO)c([N+](=O)[O-])cc2N1 .
Result block: inactive

Query block: Which outcome was assigned to CC(=O)OCC(=O)[C@@]1(O)CC[C@@H]2[C@H]3CCC4=CC(=O)C=C[C@]4(C)[C@]3(F)[C@@H](O)C[C@@]21C in this test?
Result block: inactive
